B1: library; a variant is named by its letters at N, in order (parent)
chain: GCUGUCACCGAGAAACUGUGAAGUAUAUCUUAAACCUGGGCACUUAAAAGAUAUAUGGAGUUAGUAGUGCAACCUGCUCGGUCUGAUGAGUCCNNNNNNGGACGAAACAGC

- Variants of: B1
- protocol notes: normalized RNA/DNA level without ligand (relative to sTRSVctl = 100) (log10 (% of sTRSVctl)); HEK293T; ligand: cyclic di-GMP (c-di-GMP-II aptamer); higher = less ribozyme self-cleavage, higher mRNA level
- settings: reporter: mCherry (pCS4076), ligand present: no
Please respond with reported normalized RNA/DNA level without ligand (log10) for every item in the list.

# input normalized RNA/DNA level without ligand (log10) for GCUGUCACCGAGAAACUGUGAAGUAUAUCUUAAACCUGGGCACUUAAAAGAUAUAUGGAGUUAGUAGUGCAACCUGCUCGGUCUGAUGAGUCCUUGUACGGACGAAACAGC [UUGUAC] ?
# output 1.74

# input normalized RNA/DNA level without ligand (log10) for GCUGUCACCGAGAAACUGUGAAGUAUAUCUUAAACCUGGGCACUUAAAAGAUAUAUGGAGUUAGUAGUGCAACCUGCUCGGUCUGAUGAGUCCGAUACGGGACGAAACAGC [GAUACG] ?
# output 1.62

# input normalized RNA/DNA level without ligand (log10) for GCUGUCACCGAGAAACUGUGAAGUAUAUCUUAAACCUGGGCACUUAAAAGAUAUAUGGAGUUAGUAGUGCAACCUGCUCGGUCUGAUGAGUCCUCGGAGGGACGAAACAGC [UCGGAG] ?
# output 1.54

# input normalized RNA/DNA level without ligand (log10) for GCUGUCACCGAGAAACUGUGAAGUAUAUCUUAAACCUGGGCACUUAAAAGAUAUAUGGAGUUAGUAGUGCAACCUGCUCGGUCUGAUGAGUCCCGGCUAGGACGAAACAGC [CGGCUA] ?
# output 1.33

# input normalized RNA/DNA level without ligand (log10) for GCUGUCACCGAGAAACUGUGAAGUAUAUCUUAAACCUGGGCACUUAAAAGAUAUAUGGAGUUAGUAGUGCAACCUGCUCGGUCUGAUGAGUCCUGAAGUGGACGAAACAGC [UGAAGU] ?
# output 1.59
